Where do the numbers come from? From ChEMBL document CHEMBL3616441.

Catalogue of EC50 readings, one per entry.
Target: UniProt:P31424
Assay: Modulation of rat mGlu5 receptor assessed as calcium mobilization by cell based fluorescence assay

> print(dat)
                                   compound  measurement
1  C[C@@H]1CN(c2cccc(F)n2)C(=O)c2cc(COc3ccc(Cl)cn3)nn21      > 10 µM
2  C[C@@H]1CN(c2ccc(F)cc2)C(=O)c2cc(COc3ccc(F)cn3)nn21      > 10 µM

Measured EC50 of C[C@@H]1CN(c2ccc(F)cc2)C(=O)c2cc(COc3cccc(C(F)(F)F)n3)nn21 : > 30 µM

For record C[C@@H]1CN(c2ccc(F)cc2)C(=O)c2cc(COc3cccc(Cl)c3)nn21 the listed EC50 is > 10 µM

So for C[C@@H]1CN(c2ccc(F)cc2)C(=O)c2cc(COc3ccc(C(F)(F)F)cc3)nn21 , the logged EC50 turned out to be > 30 µM

----------
Biological target: Metabotropic glutamate receptor 5 (Rattus norvegicus) (UniProt P31424)
Sequence (P31424 21-1203 limits assumed): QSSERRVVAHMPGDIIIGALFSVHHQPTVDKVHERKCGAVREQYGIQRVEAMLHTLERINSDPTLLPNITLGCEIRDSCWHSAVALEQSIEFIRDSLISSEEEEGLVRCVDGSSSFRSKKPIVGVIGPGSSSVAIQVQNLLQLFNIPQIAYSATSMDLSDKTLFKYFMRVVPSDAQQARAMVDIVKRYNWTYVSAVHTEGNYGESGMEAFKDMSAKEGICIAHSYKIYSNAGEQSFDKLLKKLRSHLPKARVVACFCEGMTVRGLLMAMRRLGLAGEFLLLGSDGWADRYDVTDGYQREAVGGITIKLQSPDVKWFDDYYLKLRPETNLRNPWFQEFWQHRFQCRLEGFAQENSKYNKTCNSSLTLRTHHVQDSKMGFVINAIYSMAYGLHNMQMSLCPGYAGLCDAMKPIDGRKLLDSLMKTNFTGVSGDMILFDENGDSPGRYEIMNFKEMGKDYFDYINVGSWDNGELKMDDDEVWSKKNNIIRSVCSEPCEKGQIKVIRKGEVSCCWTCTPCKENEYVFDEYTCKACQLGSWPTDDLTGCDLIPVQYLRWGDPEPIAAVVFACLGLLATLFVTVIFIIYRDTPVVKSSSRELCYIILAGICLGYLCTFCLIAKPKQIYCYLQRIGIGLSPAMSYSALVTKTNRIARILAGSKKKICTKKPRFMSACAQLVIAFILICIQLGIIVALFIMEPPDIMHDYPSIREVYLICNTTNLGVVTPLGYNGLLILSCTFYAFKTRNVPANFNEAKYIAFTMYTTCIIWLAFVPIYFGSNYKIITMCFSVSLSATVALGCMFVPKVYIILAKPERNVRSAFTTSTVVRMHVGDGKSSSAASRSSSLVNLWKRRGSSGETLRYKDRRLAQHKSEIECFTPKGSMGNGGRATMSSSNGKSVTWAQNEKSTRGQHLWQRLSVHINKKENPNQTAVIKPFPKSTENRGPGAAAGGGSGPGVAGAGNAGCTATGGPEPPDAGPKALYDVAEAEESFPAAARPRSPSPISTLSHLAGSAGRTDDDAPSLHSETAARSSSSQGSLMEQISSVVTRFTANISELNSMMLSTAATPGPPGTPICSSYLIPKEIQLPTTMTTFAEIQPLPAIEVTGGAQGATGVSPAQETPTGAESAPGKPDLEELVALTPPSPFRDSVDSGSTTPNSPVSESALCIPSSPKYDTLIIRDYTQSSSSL
Assay: Modulation of rat mGlu5 receptor assessed as assessed as calcium mobilization at 30 uM by cell based fluorescence assay
Format: functional
Hi! Could you tag entries with Activity below 70% as satisfied, and those at or above as not satisfied? Much appreciated.

> print(dat)
                                   compound    label.value
1  C[C@@H]1CN(c2ncccc2F)C(=O)c2cc(COc3ccc(Cl)cn3)nn21      satisfied
2  Cc1ccccc1OCc1cc2n(n1)[C@H](C)CN(c1ccc(F)cc1)C2=O  not satisfied
3  Cc1ccccc1N1C[C@@H](C)n2nc(COc3ccc(Cl)cn3)cc2C1=O  not satisfied
4  C[C@@H]1CN(c2ccccc2Cl)C(=O)c2cc(COc3ccc(Cl)cn3)nn21      satisfied
5  C[C@@H]1CN(c2ccc(F)cc2)C(=O)c2cc(COc3ccc(Cl)cn3)nn21  not satisfied

Given C[C@@H]1CN(c2cccc(F)c2)C(=O)c2cc(COc3ccc(Cl)cn3)nn21 , is recorded Activity strictly lower than 70%? satisfied

Find out if reported Activity for Cc1cccc(OCc2cc3n(n2)[C@H](C)CN(c2ccc(F)cc2)C3=O)c1 is less than 70% satisfied

----------
Biological target: Metabotropic glutamate receptor 3 (Rattus norvegicus, UniProt P31422)
Sequence (P31422 whole entry): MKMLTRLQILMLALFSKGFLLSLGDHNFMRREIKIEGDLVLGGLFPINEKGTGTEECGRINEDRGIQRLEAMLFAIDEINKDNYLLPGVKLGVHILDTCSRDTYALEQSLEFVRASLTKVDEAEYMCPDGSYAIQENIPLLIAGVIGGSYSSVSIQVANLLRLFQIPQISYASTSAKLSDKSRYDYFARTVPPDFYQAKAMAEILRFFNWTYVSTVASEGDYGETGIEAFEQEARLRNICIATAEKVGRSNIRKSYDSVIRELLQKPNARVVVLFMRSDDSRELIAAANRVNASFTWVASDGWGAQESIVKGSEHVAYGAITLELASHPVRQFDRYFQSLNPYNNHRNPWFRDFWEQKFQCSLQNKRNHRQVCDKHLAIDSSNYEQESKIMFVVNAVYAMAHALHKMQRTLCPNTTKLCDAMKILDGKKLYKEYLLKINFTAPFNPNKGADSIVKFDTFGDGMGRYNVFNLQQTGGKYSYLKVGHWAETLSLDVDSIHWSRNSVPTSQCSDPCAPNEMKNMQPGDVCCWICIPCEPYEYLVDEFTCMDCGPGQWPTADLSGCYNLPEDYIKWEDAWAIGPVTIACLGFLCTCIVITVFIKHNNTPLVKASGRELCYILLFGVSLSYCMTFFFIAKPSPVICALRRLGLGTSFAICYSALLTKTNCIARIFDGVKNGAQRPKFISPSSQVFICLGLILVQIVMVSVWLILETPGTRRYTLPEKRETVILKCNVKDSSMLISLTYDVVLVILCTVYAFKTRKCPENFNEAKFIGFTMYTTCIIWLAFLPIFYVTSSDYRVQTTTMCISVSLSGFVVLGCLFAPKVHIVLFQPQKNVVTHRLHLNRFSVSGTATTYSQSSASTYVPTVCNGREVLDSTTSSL
Assay: Negative allosteric modulation of rat mGlu3 receptor assessed as calcium mobilization by cell based fluorescence assay
QUANTITY KIND: pIC50
// pIC50: -log10(molar conc.)

> print(dat)
                                   compound  measurement
1  C[C@@H]1CN(c2ccc(F)cc2)C(=O)c2cc(COc3ccc(Cl)cn3)nn21         6.22

Reported pIC50 ( C[C@@H]1CN(c2ccc(C#N)cc2)C(=O)c2cc(COc3ccc(Cl)cn3)nn21 ) = 6.27

Entry C[C@@H]1CN(c2cccc(F)c2F)C(=O)c2cc(COc3ccc(F)cn3)nn21 , pIC50 reported as 6.74

The recorded pIC50 for C[C@@H]1CN(c2ccccn2)C(=O)c2cc(COc3ccc(Cl)cn3)nn21 is 6.48

Just so you know, measured pIC50 for C[C@@H]1CN(c2ccccn2)C(=O)c2cc(COc3ccc(F)cn3)nn21 came out at 6.04

----------
Target: Metabotropic glutamate receptor 3 (Rattus norvegicus)
Assay: Negative allosteric modulation of rat mGlu3 receptor assessed as amplitude response at 30 uM relative to glutamate
QUANTITY KIND: Activity (%)
Field: numeric (%). Do not append units.

> print(dat)
                                   compound  measurement
1  COc1cccc(N2C[C@@H](C)n3nc(COc4ccc(Cl)cn4)cc3C2=O)c1            2
2  C[C@@H]1CN(c2cccc(C#N)c2)C(=O)c2cc(COc3ccc(Cl)cn3)nn21         1.75

The recorded Activity for C[C@@H]1CN(c2ccc(C#N)cc2)C(=O)c2cc(COc3ccc(Cl)cn3)nn21 is 1.84

get_value(item= C[C@@H]1CN(c2cccc(F)n2)C(=O)c2cc(COc3ccc(Cl)cn3)nn21 , readout=Activity) returns 1.75

For C[C@@H]1CN(c2cccc(Cl)c2)C(=O)c2cc(COc3ccc(Cl)cn3)nn21 the molecule record lists Activity as 1.63

Per the records, this molecule ( C[C@@H]1CN(c2ccc(F)cc2)C(=O)c2cc(COc3ccccc3F)nn21 ) has Activity equal to 2.9

Looking up C[C@@H]1CN(c2cncc(F)c2)C(=O)c2cc(COc3ccc(Cl)cn3)nn21 , I see its Activity listed as 1.85

# molecule C[C@@H]1CN(c2ccc(Cl)cc2)C(=O)c2cc(COc3ccc(F)cn3)nn21 ; its Activity = 2.17

The molecule identified as C[C@@H]1CN(c2ccc(F)cc2)C(=O)c2cc(COc3ccc(OC(F)(F)F)cc3)nn21 registered its Activity at 2.66

----------
Target: Metabotropic glutamate receptor 5 (Rattus norvegicus, UniProt P31424)
Sequence (P31424 whole entry): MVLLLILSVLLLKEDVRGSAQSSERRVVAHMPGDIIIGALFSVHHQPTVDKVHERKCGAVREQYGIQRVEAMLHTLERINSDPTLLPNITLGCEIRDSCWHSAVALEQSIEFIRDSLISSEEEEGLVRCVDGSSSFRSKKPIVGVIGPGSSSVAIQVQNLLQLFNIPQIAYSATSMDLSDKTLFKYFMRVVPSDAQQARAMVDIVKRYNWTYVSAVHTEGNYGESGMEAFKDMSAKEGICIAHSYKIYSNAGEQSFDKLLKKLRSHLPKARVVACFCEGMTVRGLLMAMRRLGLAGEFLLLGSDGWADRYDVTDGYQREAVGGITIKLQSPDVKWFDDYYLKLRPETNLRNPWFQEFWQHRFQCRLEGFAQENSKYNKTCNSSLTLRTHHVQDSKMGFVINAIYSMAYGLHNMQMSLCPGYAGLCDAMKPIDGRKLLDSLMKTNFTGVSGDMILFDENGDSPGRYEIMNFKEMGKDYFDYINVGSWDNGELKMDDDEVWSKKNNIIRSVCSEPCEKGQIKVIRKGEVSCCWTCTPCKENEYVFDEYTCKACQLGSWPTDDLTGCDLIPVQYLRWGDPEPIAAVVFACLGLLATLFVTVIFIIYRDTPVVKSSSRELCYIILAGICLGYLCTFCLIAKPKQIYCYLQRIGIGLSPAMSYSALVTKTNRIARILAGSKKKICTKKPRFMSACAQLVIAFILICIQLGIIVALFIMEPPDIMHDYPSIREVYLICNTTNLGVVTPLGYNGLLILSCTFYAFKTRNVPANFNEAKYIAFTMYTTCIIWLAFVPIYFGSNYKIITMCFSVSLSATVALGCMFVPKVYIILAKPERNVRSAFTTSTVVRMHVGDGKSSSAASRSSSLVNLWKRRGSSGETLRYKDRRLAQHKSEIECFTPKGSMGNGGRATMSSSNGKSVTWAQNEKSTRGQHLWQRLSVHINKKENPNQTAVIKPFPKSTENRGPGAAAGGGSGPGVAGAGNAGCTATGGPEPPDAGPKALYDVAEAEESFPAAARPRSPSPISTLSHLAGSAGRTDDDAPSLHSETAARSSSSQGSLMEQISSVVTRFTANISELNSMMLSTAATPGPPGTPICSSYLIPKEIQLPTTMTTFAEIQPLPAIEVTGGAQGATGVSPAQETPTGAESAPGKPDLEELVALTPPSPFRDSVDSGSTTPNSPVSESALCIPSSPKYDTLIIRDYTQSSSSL
Experiment: Modulation of rat mGlu5 receptor assessed as calcium mobilization by cell based fluorescence assay
pEC50: −log10 of the molar value.
QUANTITY KIND: pEC50

> print(dat)
                                   compound  quantity.kind  measurement
1  C[C@@H]1CN(c2cccnc2)C(=O)c2cc(COc3ccc(F)cn3)nn21          pEC50       < 5.00
2  COc1ccccc1OCc1cc2n(n1)[C@H](C)CN(c1ccc(F)cc1)C2=O          pEC50       < 5.00
3  C[C@@H]1CN(c2cnccc2F)C(=O)c2cc(COc3ccc(Cl)cn3)nn21          pEC50       < 4.52
4  C[C@@H]1CN(c2cncc(F)c2)C(=O)c2cc(COc3ccc(Cl)cn3)nn21          pEC50       < 4.52
5  C[C@@H]1CN(c2cccc(C#N)c2)C(=O)c2cc(COc3ccc(Cl)cn3)nn21          pEC50       < 5.00

Record COc1cccc(N2C[C@@H](C)n3nc(COc4ccc(F)cn4)cc3C2=O)c1 , field pEC50: < 5.00

The value of pEC50 measured for the compound C[C@@H]1CN(c2ncccc2F)C(=O)c2cc(COc3ccc(Cl)cn3)nn21 turned out to be < 5.00

Form: compound = C[C@@H]1CN(c2ccc(F)cc2)C(=O)c2cc(COc3cc(C(F)(F)F)ccn3)nn21 ; pEC50 = < 5.00

get_value(item= C[C@@H]1CN(c2ncccc2C#N)C(=O)c2cc(COc3ccc(Cl)cn3)nn21 , readout=pEC50) returns < 4.52

----------
Molecular target: Metabotropic glutamate receptor 5 (Rattus norvegicus, UniProt P31424)
Experiment: Modulation of rat mGlu5 receptor assessed as calcium mobilization by cell based fluorescence assay
Assay type: functional
Returns: string. Value is MET if measured EC50 is below 3 µM, and NOT MET if it is greater than or equal to it.

Would you please look over these solved cases?
> print(dat)
                                   compound  label.value
1  COc1ccccc1N1C[C@@H](C)n2nc(COc3ccc(F)cn3)cc2C1=O          MET
2  COc1ccnc(OCc2cc3n(n2)[C@H](C)CN(c2ccc(F)cc2)C3=O)c1      NOT MET
3  C[C@@H]1CN(c2ccc(F)cc2)C(=O)c2cc(COc3ccc(C#N)cc3)nn21          MET
4  Cc1cccc(OCc2cc3n(n2)[C@H](C)CN(c2ccc(F)cc2)C3=O)c1      NOT MET
5  COc1ccc(N2C[C@@H](C)n3nc(COc4ccc(F)cn4)cc3C2=O)cc1          MET

Hello, is EC50 of the following compound strictly smaller than 3 µM? COc1ccccc1N1C[C@@H](C)n2nc(COc3ccc(Cl)cn3)cc2C1=O NOT MET

Consider the compound COc1ccc(OCc2cc3n(n2)[C@H](C)CN(c2ccc(F)cc2)C3=O)cc1 . Is its EC50 strictly less than 3 µM? MET

----------
Target: Metabotropic glutamate receptor 5 (Rattus norvegicus) (UniProt P31424)
Test: Modulation of rat mGlu5 receptor assessed as assessed as calcium mobilization at 30 uM by cell based fluorescence assay
Format: functional
QUANTITY KIND: Activity
The number alone won't do; follow it with the unit.

The following molecules have reported results that may help.
> print(dat)
                                    compound  measurement
 1  C[C@@H]1CN(c2c(F)cccc2F)C(=O)c2cc(COc3ccc(Cl)cn3)nn21        40.3%
 2  C[C@@H]1CN(c2cccc(Cl)c2)C(=O)c2cc(COc3ccc(F)cn3)nn21        19.2%
 3  Cc1ccc(N2C[C@@H](C)n3nc(COc4ccc(Cl)cn4)cc3C2=O)cc1        70.8%
 4  C[C@@H]1CN(c2ccccc2F)C(=O)c2cc(COc3ccc(F)cn3)nn21        29.1%
 5  COc1cccc(OCc2cc3n(n2)[C@H](C)CN(c2ccc(F)cc2)C3=O)c1        32.4%
 6  COc1ccnc(OCc2cc3n(n2)[C@H](C)CN(c2ccc(F)cc2)C3=O)c1        54.7%
 7  C[C@@H]1CN(c2ccc(F)cc2)C(=O)c2cc(COc3ccccc3Cl)nn21        84.4%
 8  C[C@@H]1CN(c2ccc(Cl)cc2)C(=O)c2cc(COc3ccc(Cl)cn3)nn21        51.2%
 9  C[C@@H]1CN(c2ccc(F)cc2)C(=O)c2cc(COc3ccc(F)cn3)nn21        46.5%
10  Cc1cccc(N2C[C@@H](C)n3nc(COc4ccc(Cl)cn4)cc3C2=O)c1        69.9%

Shifting focus to the molecule that follows.
Given the molecule C[C@@H]1CN(c2cccc(Cl)c2)C(=O)c2cc(COc3ccc(Cl)cn3)nn21 and test system Metabotropic glutamate receptor 5 (Rattus norvegicus) (UniProt P31424), the measured Activity is 65.8%
